tested on: H9c2; assay: cardiomyocyte survival under oxidative or metabolic stress – cell-based, panel, H9c2 and HL-1, ATP luminescence, set 2, SAR follow-up (AID 651871); settings: H9c2/HL-1 cardiomyocytes, 2-deoxyglucose stress, with 2-deoxyglucose, mean of runs;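 further: cells exposed to stressor for 2 h before ATP readout; potency for protection of cells against peroxide damage not for cytotoxicity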
Below: a set of entries, each annotated with reported IC50.

{"Chem smiles": "CCOC(=O)c1cccc(NC(=O)CNC(=O)c2cc(-c3cc(OC)c(OC)c(OC)c3)nc3ccccc23)c1", "Target desc": "H9c2", "IC50": "2.72 µM"}
{"Chem smiles": "COc1ccc2nc(-c3cc(OC)c(OC)c(OC)c3)cc(C(=O)NCC(=O)Nc3ccc(C(C)=O)cc3)c2c1", "Target desc": "H9c2", "IC50": "3.87 µM"}
